B1: CD2-associated protein, residues 271 to 331; numbered along this chain, Q9Y5K6 (parent)
chain: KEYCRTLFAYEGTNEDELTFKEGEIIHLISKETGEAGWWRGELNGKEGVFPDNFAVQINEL

- Variants of: B1
- testDescription: abundance fitness (aPCA) (normalised: wild type 0, dead -1); higher = more abundant; growth selection in yeast, the domain comes from the species named
- measurementSetup: Homo sapiens
quantity: abundance fitness

- A36H: -0.199
- A36G: -0.235
- K21E: -0.015
- G41D: -0.616
- G45F: -0.408
- F50C: -0.516
- E60F: -0.213
- Q57W: -0.532
- A55D: -0.671
- G41M: -1.01
- W39D: -0.941
- Q57D: -0.097
- N14S: -0.024
- V56E: 0.003
- Y10A: -0.686
- E11K: -0.095
- E17G: -0.58
- A55R: -1.07
- I25H: -0.448
- L7G: -0.57
- E60T: -0.11
- Y10E: -0.592
- Q57A: -0.023
- L61T: 0.105
- F50R: -0.614
- L43V: -0.308
- N53F: -0.14
- G45W: -0.829
- E35W: -0.358
- K46C: -0.056
- L43Y: -0.294
- P51H: -0.866
- Y3W: -0.661
- E2T: -0.121
- G41N: -0.881
- G41R: -0.909
- E2R: -0.245
- W38P: -0.729
- E35S: 0.034
- E22K: 0.116
- V49G: -0.628
- F54L: 0.037
- E15P: -0.027
- T6W: -1.15
- T33C: -0.163
- L43H: -0.522
